# method_description: Caco-2 membrane permeability assay
# Type: in vitro ADME
# experimental_conditions: human; Caco-2, apical pH 6.5, basolateral pH 7.4
measured_quantity: Papp B→A (×10⁻⁶ cm/s)
Output spec: scalar in ×10⁻⁶ cm/s, unitless text.

# Papp B→A lookup, item CCc1c(N2CCN(C(=O)c3ncnc(C)c3O)CC2)c(=O)n2nc(C3=CCOCC3)nc2n1CC(=O)Nc1ccc(C(F)(F)F)c2ccoc12 [Compound H22]
21

====

# method_description: Pharmacokinetic evaluation in mice
# Format: in vivo, CD1 female mice
# experimental_conditions: female, CD1, mouse, plasma, IV 2 mg/kg
measured_quantity: clearance (mL/min/kg)
Lab book: enter the figure in mL/min/kg, no units written.

molecule | clearance / mL/min/kg
CCc1c(N2CCN(C(=O)c3ncnc(C)c3O)CC2)c(=O)n2nc(C3=CCOCC3)nc2n1CC(=O)Nc1ccc(C(F)(F)F)c2sccc12 | 42.9

Turning to the following compound.
Quick check: clearance of "CCc1c(N2CCN(C(=O)c3ncnc(C)c3O)CC2)c(=O)n2nc(C3=CCOCC3)nc2n1CC(=O)Nc1ccc(Br)c2ccsc12" ?
50.4

====

# target_entity: WRN helicase (Homo sapiens, UniProt Q14191)
# Sequence (Q14191 whole entry): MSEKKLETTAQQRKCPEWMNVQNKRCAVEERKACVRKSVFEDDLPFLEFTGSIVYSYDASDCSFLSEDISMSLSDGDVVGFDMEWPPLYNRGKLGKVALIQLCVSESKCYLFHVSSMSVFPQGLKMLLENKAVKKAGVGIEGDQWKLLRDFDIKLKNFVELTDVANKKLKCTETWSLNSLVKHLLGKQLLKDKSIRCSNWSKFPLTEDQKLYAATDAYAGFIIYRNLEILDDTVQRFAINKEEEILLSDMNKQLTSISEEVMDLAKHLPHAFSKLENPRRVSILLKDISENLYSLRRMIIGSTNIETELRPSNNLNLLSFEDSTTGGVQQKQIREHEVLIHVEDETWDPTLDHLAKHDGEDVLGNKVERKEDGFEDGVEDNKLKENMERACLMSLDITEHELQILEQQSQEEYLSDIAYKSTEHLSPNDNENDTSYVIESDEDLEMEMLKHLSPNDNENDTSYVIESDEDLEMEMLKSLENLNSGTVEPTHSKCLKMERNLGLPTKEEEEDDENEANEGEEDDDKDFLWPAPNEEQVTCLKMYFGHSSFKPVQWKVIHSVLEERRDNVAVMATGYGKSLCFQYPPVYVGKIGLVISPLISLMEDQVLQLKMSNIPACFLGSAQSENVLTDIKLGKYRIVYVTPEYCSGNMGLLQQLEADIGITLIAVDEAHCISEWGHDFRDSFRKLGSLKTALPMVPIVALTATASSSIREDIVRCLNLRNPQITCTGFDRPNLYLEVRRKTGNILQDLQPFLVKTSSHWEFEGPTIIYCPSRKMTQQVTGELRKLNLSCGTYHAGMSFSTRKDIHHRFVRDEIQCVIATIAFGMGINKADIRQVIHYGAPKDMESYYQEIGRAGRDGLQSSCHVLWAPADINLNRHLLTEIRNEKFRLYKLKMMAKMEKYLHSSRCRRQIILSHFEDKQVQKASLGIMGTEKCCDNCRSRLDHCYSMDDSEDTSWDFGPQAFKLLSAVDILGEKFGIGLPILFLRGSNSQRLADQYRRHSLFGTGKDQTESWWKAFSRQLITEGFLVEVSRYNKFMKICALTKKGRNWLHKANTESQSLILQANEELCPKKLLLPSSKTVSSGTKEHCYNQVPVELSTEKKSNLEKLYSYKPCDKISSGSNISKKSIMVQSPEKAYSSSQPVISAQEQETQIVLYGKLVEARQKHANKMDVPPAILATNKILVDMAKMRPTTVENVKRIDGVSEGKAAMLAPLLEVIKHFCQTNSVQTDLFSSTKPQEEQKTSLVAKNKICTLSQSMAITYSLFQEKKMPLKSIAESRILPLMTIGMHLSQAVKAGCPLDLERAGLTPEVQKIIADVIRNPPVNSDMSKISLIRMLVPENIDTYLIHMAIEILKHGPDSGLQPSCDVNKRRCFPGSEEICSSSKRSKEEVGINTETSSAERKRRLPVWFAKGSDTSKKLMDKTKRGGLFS
# method_description: WRN helicase hydrolysis/unwinding of double-stranded DNA (fluorescence)
# Assay type: biochemical
criterion met if IC50 is below 4 nM. criterion not met if not; exact matches included in criterion not met.

molecule | classification
CCc1c(N2CCN(C(=O)c3nccc(Cl)c3O)CC2)c(=O)n2nc(C3=CCOCC3)nc2n1CC(=O)Nc1ccc(C(F)(F)F)c2ccsc12 | criterion met
CCc1c(N2CCN(C(=O)c3ncnc(C)c3O)CC2)c(=O)n2nc(C3=CCOCC3)nc2n1CC(=O)Nc1ccc2c(c1)NCC2(O)C(F)(F)F (stereo not shown) | criterion not met
CCc1c(N2CCN(C(=O)c3ncccc3O)CC2)c(=O)n2nc(C3=CCS(=O)(=O)CC3)nc2n1CC(=O)Nc1ccc(C(F)(F)F)cc1Cl | criterion met
CCc1c(N2CCN(C(=O)c3ncccc3O)CC2)c(=O)n2nc(C3=CCOCC3)nc2n1CC(=O)Nc1ccc(C(F)(F)F)c2c1OCCO2 | criterion not met
CCc1c(N2CCN(C(=O)c3ncccc3O)CC2)c(=O)n2nc(C3=CCOCC3)nc2n1CC(=O)Nc1ccc(C(F)(F)F)c2ccsc12 | criterion met

# strict comparison: is reported IC50 < 4 nM? input = "CCc1c(N2CCN(C(=O)c3ncnc(C)c3O)CC2)c(=O)n2nc(C3=CCOCC3)nc2n1CC(=O)Nc1ccc(C(F)(F)F)c2c1OCC2"
criterion met

Could you please tell me whether IC50 recorded for "CCc1c(N2CCN(C(=O)c3ncccc3O)CC2)c(=O)n2nc(N3CCOCC3)nc2n1CC(=O)Nc1ccc(C(F)(F)F)c2ccsc12" is less than 4 nM?
criterion met

Report whether reported IC50 is lower than 4 nM (strictly) for "CCc1c(N2CCN(C(=O)c3ncnc(C)c3O)CC2)c(=O)n2nc(C3=CCOCC3)nc2n1CC(=O)Nc1ccc2c(C(F)(F)F)c[nH]c2c1"
criterion not met

For this molecule, is IC50 lower than 4 nM? "CCc1c(N2CCN(C(=O)c3ncnc(C)c3O)CC2)c(=O)n2nc(C3=CCOCC3)nc2n1CC(=O)Nc1ccc(C(F)(F)F)cc1SC"
criterion not met

# check: IC50 < 4 nM for CCc1c(N2CCN(C(=O)c3ncccc3O)CC2)c(=O)n2nc(C3=CCOCC3)nc2n1CC(=O)NC12CC(C(F)(F)F)(C1)C2 [Compound A2, reference compound]
criterion not met
